The measurements presented in this section are drawn from patent US20200071424A1.

target: human-mouse chimeric EL (construct not specified); test: cell-based or functional assay
OBSERVED_PROPERTY: Neutralizing activity IC50 (nM)
// return numeric value only (unit: nM, not printed)

Data request: Quick one: Neutralizing activity IC50 of h12B10-S2 (antibody, V domains shown) VH: EVQLVESGGGLVKPGGSLRLSCAASGFSLSTSGMGVGWVRQAPGKGLEWLAHIWWNDEKYYNPSLKSRFTISRDDSKNTLYLQMNSLKTEDTAVYYCARDHLAFYFDLWGQGTLVTVSS VL: DIQMTQSPSSLSASVGDRVTITCKASQDINKYIAWYQQKPGKAPKLLMAYPFTLQPGVPSRFSGSGSGTDFTLTISSLQPEDFATYYCLQYDNLLWTFGQGTKVEIK ?
Data returned: 5.4
